- system-name: T1, ZFP SBS#250 (synthetic)
- T1 chain: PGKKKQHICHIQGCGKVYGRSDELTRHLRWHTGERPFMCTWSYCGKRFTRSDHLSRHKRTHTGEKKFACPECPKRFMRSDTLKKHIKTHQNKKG
- assay-remarks: EMSA
- test-parameters: tags: MBP fusion
measured-metric: Kd
State the result as a value with its unit after it.

stdin: Fill in: Kd of GCGGGGGCG (dsDNA) DNA 1: GCGGGGGCG DNA 2: CGCCCCCGC is ___
stdout: 70 nM
